meta.source: the Deep4Chem optical property database

Would you mind telling me the reported photoluminescence quantum yield of each entry?
Measurement protocol: photoluminescence quantum yield (fraction); solvent given as SMILES
Measurement setup: in O
Give bare numbers.

// known answers, use as guide
CCN(CC)c1ccc2cc(/C=C/C(=O)c3cc4ccc(N(CC)CC)cc4oc3=O)c(=O)oc2c1; 0
C/C=C/C=C/C1=NC(=C\c2ccc(O)cc2)/C(=O)N1C; 0.0008
CC[N+]1(CC)CN2C(=N1)C(C(=O)O)=Cc1c2ccc2ccccc12; 0.711
COCCOCCOCCN1C(=O)c2cc(NCCOCCO)c3c4c(cc(NCCOCCO)c(c24)C1=O)C(=O)N(CCOCCOCCOC)C3=O; 0.031
CN(C)c1ccc2[c](c1)[Sn]([CH3])([CH3])[C]1=CC(=[N+](C)C)C=CC1=C2; 0.43

Lab note: each molecule below needs its photoluminescence quantum yield filled in.
1. CN1C(=O)/C(=C/c2ccncc2)N=C1/C=C/c1ccncc1
2. CC/[NH+]=c1\cc2oc3cc(NCCC(=O)NC(C(=O)OC)C(C)C)c4ccccc4c3nc-2cc1C (centres undefined)
3. N#CC(C#N)=Cc1ccc(-c2ccc(-c3nc4ccccc4s3)c(O)c2)o1
4. N#CC(C#N)=Cc1ccc(-c2ccc(-c3nc4ccccc4s3)c(O)c2)s1

Result block:
[0.013, 0.26, 0.01, 0.01]

###

Measurement protocol: photoluminescence quantum yield (fraction); solvent given as SMILES
Measurement setup: in C1CCOC1
Metric name: photoluminescence quantum yield
Numbers only.

// known answers, use as guide
CN(C)c1ccc(C#Cc2ccccc2)cc1; 0.244
Cc1cc(C)c(C2=C3C=c4c(c5ccc(C(C)(C)C)cc5c5cc(C(C)(C)C)ccc45)=[N+]3[B-](F)(F)n3c2cc2c4ccc(C(C)(C)C)cc4c4cc(C(C)(C)C)ccc4c23)c(C)c1; 0.25

Lab note: each molecule below needs its photoluminescence quantum yield filled in.
1. O=Cc1ccc(C2=C3C=c4c(oc5ccccc45)=[N+]3[B-](F)(F)n3c2cc2c4ccccc4oc23)cc1
2. [C-]#[N+]c1ccc(-c2ccc(N(C)C)cc2)cc1
3. F[Si-](F)(c1ccccc1)(c1ccccc1)c1cccc2ccccc12
4. CCCCCCc1ccc(-n2c3[n+](c4c5ccccc5c5ccccc5c42)[B-](C)(C)c2ccc4ccccc4c2-3)cc1
5. CN(C)c1ccc(C2=Nc3scc(-c4ccc(C#N)cc4)[n+]3[B-](F)(F)O2)cc1
6. COC(=O)/C=C/c1ccc2ccc3cccc4ccc1c2c34
7. CC1=[N+]2C(=C(c3ccccc3)c3ccc(/C=C/c4ccc(C(=C(c5ccccc5)c5ccccc5)c5ccccc5)cc4)n3[B-]2(F)F)C=C1
8. CCCCCCOc1ccc(-c2cnc(-c3nnc(-c4ccc(OCCCCCC)cc4)o3)o2)cc1

Result block:
1. 0.42
2. 0.85
3. 0.061
4. 0.11
5. 0.23
6. 0.73
7. 0.746
8. 0.57

Lab note: each molecule below needs its photoluminescence quantum yield filled in.
1. Clc1ccc(/C=C/c2ccc(-c3nc4c5cccnc5c5ncccc5c4[nH]3)cc2)cc1
2. O=C1/C(=C\c2ccc(N(c3ccccc3)c3ccccc3)cc2)S(=O)(=O)c2ccccc21
3. CCCCCCCCCCCCCCCCOc1cc(C#Cc2ccc3ccccc3c2)c(OCCCCCCCCCCCCCCCC)cc1C#Cc1ccc(C=C(C#N)C#N)cc1
4. CC(C)(C)[Si](C)(C)C#CC1=CC2=c3cc(C#C[Si](C)(C)C(C)(C)C)c4nc(C(F)(F)C(F)(F)C(F)(F)F)nc5c(C#C[Si](C)(C)C(C)(C)C)cc(c3c54)C3=CC(C#C[Si](C)(C)C(C)(C)C)=C4N=C(C(F)(F)C(F)(F)C(F)(F)F)N=C1C4C32 (stereo unspecified)
5. O=S(=O)(c1ccc(-c2ccc(-c3nc4c5ccccc5c5ccccc5c4n3-c3ccccc3)cc2)cc1)c1ccc(-c2ccc(-c3nc4c5ccccc5c5ccccc5c4n3-c3ccccc3)cc2)cc1

Result block:
1: 0.42; 2: 0.037; 3: 0.5; 4: 0.35; 5: 0.847

Query block: Given the entry Cc1ccc2nc3c(nc2c1)c(-c1ccccc1)nn3C , report its measured photoluminescence quantum yield.
Result block: 0.47

###

Measurement protocol: photoluminescence quantum yield (fraction); solvent given as SMILES
Measurement setup: in CCCCO
Would you mind telling me the reported photoluminescence quantum yield of each entry?
Give bare numbers.

// known answers, use as guide
CCCCCCC(CCCCCC)N1C(=O)c2cccc3c(-c4ccc(-c5ccc(OC)cc5)cc4)ccc(c23)C1=O; 0.16
CCCCCCC(CCCCCC)N1C(=O)c2cccc3c(-c4ccc([Si](C)(C)C)cc4)ccc(c23)C1=O; 0.89
COC(=O)C(Cc1ccc2oc(-c3ccc(N(c4ccccc4)c4ccccc4)cc3)nc2c1)NC(=O)OC(C)(C)C (stereo not given); 0.87
COc1cc(OC)cc(-c2ccc(-c3ccc(C#N)s3)s2)c1; 0.1

Query block: Given the entry CCCN1C(=O)C(=CC=CC=C2Oc3ccccc3N2CCCS(=O)(=O)[O-])C(=O)N(CCC)C1=S , report its measured photoluminescence quantum yield.
Result block: 0.37

###

Would you mind telling me the reported photoluminescence quantum yield of each entry?
Measurement protocol: photoluminescence quantum yield (fraction); solvent given as SMILES
Measurement setup: in O
One number for each entry.

CC1(C)C2=[N+](CCCCCC(=O)NCCCNC(=O)CCCCCN3/C(=C/C=C/C=C/C=C/2)C(C)(C)c2cc(S(=O)(=O)[O-])ccc23)c2ccc(S(=O)(=O)[O-])cc21; 0.36

Lab note: each molecule below needs its photoluminescence quantum yield filled in.
1. CCN(CC)c1ccc2c(c1)C(C)(C)C(=O)C=C2
2. Nc1cc(N)cc(-c2nc3ccccc3s2)c1
3. COc1ccc2cc([C@H](C)C(=O)O)ccc2c1
4. NS(=O)(=O)c1ccc(N2N=C(c3ccc(O)cc3)CC2c2ccc(F)cc2)cc1 (centres undefined)
5. CCCN1/C(=C/C=C(/C=C/c2sc3ccccc3[n+]2CCC)c2ccc([N+](=O)[O-])cc2)C(C)(C)c2ccccc21
6. Oc1ccccc1-c1nc2ccccc2s1

Result block:
[0.09, 0.0091, 0.41, 0.57, 0.06, 0.101]

Lab note: each molecule below needs its photoluminescence quantum yield filled in.
1. COC(=O)C(Cc1ccc2oc(-c3ccc(N(c4ccccc4)c4ccccc4)cc3)nc2c1)NC(=O)OC(C)(C)C (centres undefined)
2. CC1(C)C(/C=C/C=C/C=C/C=C2/N(S(=O)(=O)[O-])c3ccc(S(=O)(=O)[O-])cc3C2(C)C)=[N+](S(=O)(=O)[O-])c2ccc(S(=O)(=O)[O-])cc21
3. [NH3+]C(Cc1ccc(O)c(O)c1)C(=O)[O-] (centres undefined)
4. CCCN1/C(=C/C=C(/C=C/C2=[N+](CCC)c3ccccc3C2(C)C)c2ccc3ccccc3n2)C(C)(C)c2ccccc21
5. COc1cc(C(=O)O)cc(OC)c1O
6. COc1cc(/C=C/CO)ccc1O

Result block:
0.003
0.29
0.075
0.01
0.009
0.1

###

Would you mind telling me the reported photoluminescence quantum yield of each entry?
Measurement protocol: photoluminescence quantum yield (fraction); solvent given as SMILES
Measurement setup: in CCO

CC1=CC(C)=[N+]2C1=C(c1ccc(-c3c4ccccc4c(-c4ccccc4)c4ccccc34)cc1)c1c(C)cc(C)n1[B-]2(F)F; 0.37
CC[N+](CC)=c1ccc2cc3c(oc-2c1)-c1ccc(N(C)C)cc1CC3; 0.618
C#Cc1ccc2ccc3oc(=O)cc(C)c3c2c1; 0.23
COc1ccccc1CC(=O)OCc1c(C)c(=O)n2c(=O)c(C)c(C)n12; 0.636
O=C([O-])c1ccc(C(=O)[O-])c(C2=c3cc4c5c(c3Oc3c2cc2c6c3CCCN6CCC2)CCC[N+]=5CCC4)c1; 0.83

Lab note: each molecule below needs its photoluminescence quantum yield filled in.
1. N#CC(C#N)=Cc1ccc(-c2ccc(-c3nc4ccccc4s3)c(O)c2)o1
2. COc1ccc2c(c1)-c1ccccc1C2=O

Result block:
0.0089
0.002

Lab note: each molecule below needs its photoluminescence quantum yield filled in.
1. CCOC(=O)c1cc(C(=O)OCC)c2cc(OC)ccc2n1
2. CC(C)[Si]1(C(C)C)c2cc(C#N)ccc2-c2ccc(N(C)C)cc21
3. NS(=O)(=O)c1ccc(N2N=C(c3ccc(O)cc3)CC2c2ccc(F)cc2)cc1 (stereo unspecified)

Result block:
1: 0.53; 2: 0.74; 3: 0.47

Lab note: each molecule below needs its photoluminescence quantum yield filled in.
1. COc1ncccc1B(O)O
2. Fc1ccc(-c2cc3c4c(c2)CCc2cc(-c5ccc(F)cc5)cc(c2-4)CC3)cc1

Result block:
1: 0.783; 2: 0.18

Lab note: each molecule below needs its photoluminescence quantum yield filled in.
1. O=Cc1ccc(-c2ccc(-c3nc4ccccc4s3)c(O)c2)s1
2. Cc1cc2c(o1)=CC1=Cc3cc4oc(C)cc4n3[B-](F)(F)[N+]=21
3. NNC(=O)NNN1C(=O)c2cc(S(=O)(=O)[O-])cc3c(N)c(S(=O)(=O)[O-])cc(c23)C1=O
4. COCCOCCOCCOCCOc1cc(C=O)c(OCCOCCOCCOCCOC)cc1C=O
5. COc1cnc(-c2cc[n+](C3=C(F)C(F)(F)C(F)(F)[C-]3F)cc2)s1
6. CCN(CC)c1ccc2cc(C#N)/c(=N\C(=O)c3ccccc3)oc2c1

Result block:
0.0424
0.97
0.54
0.18
0.21
0.033

Lab note: each molecule below needs its photoluminescence quantum yield filled in.
1. CN1/C(=C/C=C(/C=C/c2sc3ccccc3[n+]2C)c2ccc(F)cc2)Sc2ccccc21
2. CCN(CC)c1ccc2ccc(=O)oc2c1
3. Cc1c(C)n2c(COC(=O)c3ccccc3I)c(C)c(=O)n2c1=O

Result block:
1: 0.1; 2: 0.39; 3: 0.634
